Origin of the recorded values: paper PMC6009888

assay: physchem
List of logP values.
Form rule: numeric answer, no unit written next to it.

O=C(NN=C(c1ccc(Cl)cc1)c1ccc(Cl)cc1)Nc1ncc([N+](=O)[O-])s1 [Compound 19]; 3.9

Here is another compound to look at.
Sure, the documented logP for CC(=NNC(=O)Nc1ncc([N+](=O)[O-])s1)c1ccc([N+](=O)[O-])cc1 [Compound 8] is 1.4

###

test system: mice; assay: Neurotoxicity screening (rotarod test); type: in vivo; details: 30 mg/kg i.p., 1 h
Below, each entry is listed with its recorded Neurotoxicity (animals that exhibit toxicity / animals tested).

O=C(NN=Cc1cccc(Cl)c1Cl)Nc1ncc([N+](=O)[O-])s1 [Compound 12]; 0/4
O=C(NN=C(c1ccccc1)c1ccc(O)cc1)Nc1ncc([N+](=O)[O-])s1 [Compound 18]; 0/4
O=C(NN=Cc1ccc(Cl)cc1Cl)Nc1ncc([N+](=O)[O-])s1 [Compound 13]; 0/4
CC(=NNC(=O)Nc1ncc([N+](=O)[O-])s1)c1ccc(Br)cc1 [Compound 4]; 0/4

Now consider a different molecule.
O=C(NN=C1C(=O)Nc2ccccc21)Nc1ncc([N+](=O)[O-])s1 [Compound 20] tested on mice gave Neurotoxicity (animals that exhibit toxicity / animals tested): 0/4

###

target: rat brain AChE (Rattus norvegicus, UniProt P37136); construct: the resulting clear supernatants obtained were used as enzyme sources; from tissue; host or cells: rat brain cortex homogenate, 10,000 g supernatant; assay: biochemical; assay type: biochemical; conditions: rat brain AChE, ACTI substrate, mean ± SEM, triplicate; read-out: AChE In vitro IC50 (µM) ± SEM
Sequence (P37136 32-614): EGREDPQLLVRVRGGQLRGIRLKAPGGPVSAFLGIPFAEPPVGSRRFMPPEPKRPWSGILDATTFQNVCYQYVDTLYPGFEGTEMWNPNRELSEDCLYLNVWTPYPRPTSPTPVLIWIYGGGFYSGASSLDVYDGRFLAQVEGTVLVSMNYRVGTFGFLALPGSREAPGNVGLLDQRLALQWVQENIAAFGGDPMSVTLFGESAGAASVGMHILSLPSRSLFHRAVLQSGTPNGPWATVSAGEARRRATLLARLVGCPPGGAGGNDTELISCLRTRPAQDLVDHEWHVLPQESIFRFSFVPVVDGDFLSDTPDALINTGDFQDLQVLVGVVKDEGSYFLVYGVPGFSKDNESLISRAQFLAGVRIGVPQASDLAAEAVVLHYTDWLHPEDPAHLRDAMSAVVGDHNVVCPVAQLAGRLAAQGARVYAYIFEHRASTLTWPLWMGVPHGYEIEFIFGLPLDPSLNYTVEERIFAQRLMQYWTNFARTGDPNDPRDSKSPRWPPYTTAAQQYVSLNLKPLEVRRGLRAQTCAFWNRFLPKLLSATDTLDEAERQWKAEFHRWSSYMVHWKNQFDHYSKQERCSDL
The following molecules are shown together with reported IC50 values.
Report the figure in µM without appending any unit label.

Recorded results for 3 molecules are shown here.
CC(=NNC(=O)Nc1ncc([N+](=O)[O-])s1)c1ccc(Cl)cc1; 356
O=C(NN=Cc1ccc(Br)cc1)Nc1ncc([N+](=O)[O-])s1; 96.4
O=C(NN=Cc1cccc(Cl)c1Cl)Nc1ncc([N+](=O)[O-])s1; 101

Reported IC50 ( `CC(=NNC(=O)Nc1ncc([N+](=O)[O-])s1)c1ccc(F)cc1` ) = 468

Looking up `O=C(NN=C(CBr)c1ccc(Br)cc1)Nc1ncc([N+](=O)[O-])s1` , I found its IC50 recorded as 3.93

###

Biological target: MAO-A (Rattus norvegicus)
Sequence (P21396 1-526): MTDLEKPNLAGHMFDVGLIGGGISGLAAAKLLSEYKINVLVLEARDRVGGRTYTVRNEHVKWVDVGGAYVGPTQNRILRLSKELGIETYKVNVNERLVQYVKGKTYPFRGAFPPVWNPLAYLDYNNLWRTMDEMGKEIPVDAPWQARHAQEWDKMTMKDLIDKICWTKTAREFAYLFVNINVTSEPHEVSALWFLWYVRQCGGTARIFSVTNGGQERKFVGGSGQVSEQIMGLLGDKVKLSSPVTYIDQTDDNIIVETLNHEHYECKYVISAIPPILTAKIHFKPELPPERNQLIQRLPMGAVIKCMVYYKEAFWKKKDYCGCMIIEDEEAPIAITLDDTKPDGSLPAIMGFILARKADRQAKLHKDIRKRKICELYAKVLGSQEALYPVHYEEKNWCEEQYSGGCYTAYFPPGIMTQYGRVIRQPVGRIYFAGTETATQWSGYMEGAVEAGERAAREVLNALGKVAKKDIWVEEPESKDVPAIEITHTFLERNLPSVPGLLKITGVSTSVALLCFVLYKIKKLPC
parameter_measured: Ki (µM)
Response body: numeric value in µM, unit text excluded.

Recorded Ki (compound `O=C(NN=C1C(=O)Nc2ccc(Br)cc21)Nc1ncc([N+](=O)[O-])s1` ): 17.3

###

test system: mice; assay: Neurotoxicity screening (rotarod test); format: in vivo; settings: 30 mg/kg i.p., 0.5 h
parameter_measured: Neurotoxicity (animals that exhibit toxicity / animals tested)

O=C(NN=C(c1ccccc1)c1ccc(O)cc1)Nc1ncc([N+](=O)[O-])s1 [Compound 18]; 0/4
O=C(NN=C(c1ccc(Cl)cc1)c1ccc(Cl)cc1)Nc1ncc([N+](=O)[O-])s1 [Compound 19]; 0/4

Moving on to the next compound.
Field Neurotoxicity (animals that exhibit toxicity / animals tested) (entry O=C(NN=Cc1ccc(Cl)cc1Cl)Nc1ncc([N+](=O)[O-])s1 [Compound 13] ) reads 0/4

###

Molecular target: MAO-A (Rattus norvegicus)
Construct: employing crude rat brain mitochondrial suspension; from tissue; host or cells: brain mitochondria of adult Wistar rats
Sequence (P21396 1-526): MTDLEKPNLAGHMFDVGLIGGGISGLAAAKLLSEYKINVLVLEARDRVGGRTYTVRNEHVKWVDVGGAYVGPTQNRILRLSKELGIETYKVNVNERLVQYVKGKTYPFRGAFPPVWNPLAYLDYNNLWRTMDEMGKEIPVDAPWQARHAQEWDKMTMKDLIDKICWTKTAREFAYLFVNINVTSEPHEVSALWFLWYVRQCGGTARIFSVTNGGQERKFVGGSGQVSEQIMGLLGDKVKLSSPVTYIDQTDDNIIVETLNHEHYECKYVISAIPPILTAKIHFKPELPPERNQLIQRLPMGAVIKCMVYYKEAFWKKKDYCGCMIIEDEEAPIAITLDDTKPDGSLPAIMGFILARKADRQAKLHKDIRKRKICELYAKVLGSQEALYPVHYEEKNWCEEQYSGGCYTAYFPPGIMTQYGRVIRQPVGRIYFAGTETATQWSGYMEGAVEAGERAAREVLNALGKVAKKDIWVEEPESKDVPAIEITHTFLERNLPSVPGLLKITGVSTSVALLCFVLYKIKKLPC
Experiment: In vitro MAO-A inhibition assay (rat brain mitochondria, serotonin substrate)
Type: biochemical
Settings: rat brain mitochondria, serotonin substrate, mean ± SEM, triplicate; read-out: MAO-A In vitro IC50 (µM) ± SEM
parameter_measured: IC50
Phrase the answer as number then unit, nothing more needed.

Examples from the recorded data:
CC(=NNC(=O)Nc1ncc([N+](=O)[O-])s1)c1ccc(O)cc1 [Compound 7]; 5900 µM
O=C(NN=Cc1ccc(Cl)cc1Cl)Nc1ncc([N+](=O)[O-])s1 [Compound 13]; 10500 µM
O=C(NN=Cc1c(Cl)cccc1Cl)Nc1ncc([N+](=O)[O-])s1 [Compound 14]; 13900 µM
O=C(NN=C(CBr)c1ccc(Br)cc1)Nc1ncc([N+](=O)[O-])s1 [Compound 9]; 314 µM
O=C(NN=Cc1ccc(Br)cc1)Nc1ncc([N+](=O)[O-])s1 [Compound 10]; 5150 µM

Briefly, IC50 measured for O=C(NN=C(c1ccccc1)c1ccc(Cl)cc1)Nc1ncc([N+](=O)[O-])s1 [Compound 17] : 4870 µM

Recorded IC50 (molecule CC(=NNC(=O)Nc1ncc([N+](=O)[O-])s1)c1ccc(Cl)cc1 [Compound 5] ): 4760 µM

For this molecule ( O=C(NN=Cc1cccc(Cl)c1Cl)Nc1ncc([N+](=O)[O-])s1 [Compound 12] ), measured IC50 is 3370 µM

Recorded IC50 (molecule O=C(NN=C1C(=O)Nc2ccccc21)Nc1ncc([N+](=O)[O-])s1 [Compound 20] ): 2250 µM

Sample O=C(NN=Cc1ccc(O)cc1)Nc1ncc([N+](=O)[O-])s1 [Compound 11] ; IC50 observed: 11300 µM

###

molecular target: MAO-B (Rattus norvegicus); construct: employing crude rat brain mitochondrial suspension; from tissue; host or cells: brain mitochondria of adult Wistar rats; experiment: biochemical; details: ratio of experimental IC50(MAO-A)/IC50(MAO-B)
Sequence (P19643 whole entry): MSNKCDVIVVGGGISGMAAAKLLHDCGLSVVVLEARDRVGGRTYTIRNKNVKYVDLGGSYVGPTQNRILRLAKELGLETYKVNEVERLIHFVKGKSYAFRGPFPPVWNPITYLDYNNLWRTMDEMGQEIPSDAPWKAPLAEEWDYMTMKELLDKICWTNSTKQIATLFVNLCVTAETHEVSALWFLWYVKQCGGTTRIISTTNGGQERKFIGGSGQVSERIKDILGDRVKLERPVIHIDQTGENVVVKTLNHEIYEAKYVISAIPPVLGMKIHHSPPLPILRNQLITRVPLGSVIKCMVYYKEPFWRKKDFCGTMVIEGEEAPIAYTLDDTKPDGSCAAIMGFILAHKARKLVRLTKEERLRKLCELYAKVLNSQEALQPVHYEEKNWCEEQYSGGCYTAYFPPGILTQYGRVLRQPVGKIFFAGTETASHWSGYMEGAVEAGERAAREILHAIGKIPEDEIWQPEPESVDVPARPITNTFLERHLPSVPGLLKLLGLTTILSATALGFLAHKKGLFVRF
Entries and their SI (selectivity index for MAO-B)

O=C(NN=C(c1ccccc1)c1ccc(Cl)cc1)Nc1ncc([N+](=O)[O-])s1 [Compound 17]; 170.83
O=C(NN=C1C(=O)Nc2ccc(Br)cc21)Nc1ncc([N+](=O)[O-])s1 [Compound 21]; 77.94
COc1ccc(OC)c(C=NNC(=O)Nc2ncc([N+](=O)[O-])s2)c1 [Compound 15]; 4945.91

Entry O=C(NN=Cc1c(Cl)cccc1Cl)Nc1ncc([N+](=O)[O-])s1 [Compound 14] , tested on MAO-B (Rattus norvegicus), has a reported SI (selectivity index for MAO-B) of 821.43

Entry O=C(NN=C(c1ccc(Cl)cc1)c1ccc(Cl)cc1)Nc1ncc([N+](=O)[O-])s1 [Compound 19] : SI (selectivity index for MAO-B) on MAO-B (Rattus norvegicus) = 34360.43

Reported MAO-B (Rattus norvegicus) SI (selectivity index for MAO-B) for item CC(=NNC(=O)Nc1ncc([N+](=O)[O-])s1)c1ccc(F)cc1 [Compound 6] was 2316.04

For the compound CC(=NNC(=O)Nc1ncc([N+](=O)[O-])s1)c1ccc(Cl)cc1 [Compound 5] , the measured SI (selectivity index for MAO-B) on MAO-B (Rattus norvegicus) was 7921.79

The observed SI (selectivity index for MAO-B) for O=C(NN=Cc1ccc(O)cc1)Nc1ncc([N+](=O)[O-])s1 [Compound 11] when tested with MAO-B (Rattus norvegicus) stands at 46.96

Entry CC(=NNC(=O)Nc1ncc([N+](=O)[O-])s1)c1ccc(O)cc1 [Compound 7] ; assay system MAO-B (Rattus norvegicus); SI (selectivity index for MAO-B) recorded at 399.93
